Cited source: patent US10351577B2

Experiment: Comparative pharmacokinetic study, single oral dose, plasma by LC-MS/MS
Type: in vivo
Details: mouse, CD1 mice, single oral gavage 10 mg/kg, read-out: Apparent half-life (converted)
Experimental: A pharmacokinetic study was performed in CD1 mice to establish plasma exposure following administration of single oral doses of galiellalactone and example 20. Sample analysis was by LC-MS/MS. […] AUC denotes the plasma exposure of the compound measured with time. More specifically, AUC 0-t is the area under the plasma drug concentration/time curve from 0 minutes to last quantifiable data point. […]
metric: half-life

Incoming: Would you mind telling me what half-life value was observed for C[C@@H]1C=C2C(=O)O[C@@H]3CC[C@H](C1)[C@]23O [Galiellalactone, (−)-Galiellalactone] ?
Outgoing: 1.2 h
